All figures here come from PubChem BioAssay (NCATS).

- Tested on: HEK293
- Assay Notes: Cytotoxic Profiling of Annotated Libraries Using Quantitative High-Throughput Screening (AID 1296008); note: nearly all actives have a fitted effect of over 60% in size
- Details: Five cell lines viability, CellTiter-Glo ATP luminescence, 48-72 h
- Procedure: Cell-based phenotypic screening is a commonly used approach to discover biological pathways, novel drug targets, chemical probes and high-quality hit-to-lead molecules. […] A pintool (Kalypsys) was used to transfer 23 nL of compound solution to the 1536-well assay plates. […] Plates were left at room temperature for 10 min before imaging the ATP-coupled luminescence using a ViewLux microplate imager (PerkinElmer, Waltham, MA).
Results filed as inconclusive are left out. Active and inactive are the calls of the source. Calls come from the whole dose curve; as a rule, active = well fitted inhibition curve with a large enough effect; inconclusive = small, poorly fitted or top-dose-only effect; inactive = flat fitted curve, though single readings scatter.
Classes used: yes for active, no for inactive

Molecule	Category
COC1/C=C/C(C)(O)C(SCC(N)C(=O)O)CC(=O)OC(C)C(C)CC/C=C/1C (stereo not given)	no
CCC1=CC2CN(C1)Cc1c([nH]c3ccccc13)[C@@](C(=O)OC)(c1cc3c(cc1OC)N(C)[C@H]1[C@@](O)(C(=O)OC)[C@H](OC(C)=O)[C@]4(CC)C=CCN5CC[C@]31[C@@H]54)C2 (stereo not given in full)	yes
CC(=O)NCC(=O)N1C2CCC1c1cc(Nc3ncc(C(F)(F)F)c(NC4CCC4)n3)ccc12 (stereo not given)	yes
FC(F)(F)c1cc(-c2ncn(/C=C\c3nnco3)n2)cc(C(F)(F)F)c1	yes
NCc1ccc(Nc2ncc(F)c(Nc3ccccc3)n2)cc1	yes
CCCNc1ccc2ncc(-c3ccc4[nH]ncc4c3)n2n1	yes
C[C@@]1(O)[C@H](O)[C@@H](CO)O[C@H]1n1ccc(N)nc1=O	no
O=C(/C=C/c1cccc(S(=O)(=O)Nc2ccccc2)c1)NO	yes
CC1(C)CC[C@]23CO[C@@]4(CCC5[C@@]6(C)CC[C@H](O[C@@H]7OC[C@H](O[C@@H]8O[C@H](CO)[C@@H](O)[C@H](O)[C@H]8O)[C@H](O)[C@H]7O[C@@H]7O[C@H](CO)[C@@H](O[C@@H]8O[C@H](CO)[C@@H](O)[C@H](O)[C@H]8O)[C@H](O)[C@H]7O)[C@@](C)(CO)C6CC[C@@]5(C)[C@]4(C)C[C@H]2OC2OCC(O)C(O)C2O)C3C1 (stereo not given in full)	yes
Nc1ccccc1N	yes
Cc1cc(C)c(CNC(=O)c2cc(-c3ccc(CN4CCOCC4)cc3)cc3c2cnn3C2CCCC2)c(=O)[nH]1	yes
CN1CCN(c2ccc(C(=O)Nc3n[nH]c4ccc(Cc5cc(F)cc(F)c5)cc34)c(NC3CCOCC3)c2)CC1	yes
CNCc1ccc(-c2cc(-c3nc(-c4ccc(S(=O)(=O)C(C)C)cc4)cnc3N)on2)cc1	yes
CC(Oc1ccc2[nH]nc(/C=C/c3cnn(CCO)c3)c2c1)c1c(Cl)cncc1Cl (stereo not given)	yes
CO[C@H]1C[C@@H]2CC[C@@H](C)[C@@](O)(O2)C(=O)C(=O)N2CCCC[C@H]2C(=O)O[C@H]([C@H](C)C[C@H]2CC[C@@H](OP(C)(C)=O)[C@H](OC)C2)CC(=O)[C@H](C)/C=C(\C)[C@@H](O)[C@@H](OC)C(=O)[C@H](C)C[C@H](C)/C=C/C=C/C=C/1C	yes

----------
- Assay Notes: qHTS Counterscreen for compound interference against the NCATS DSHEA and TCM libraries (AID 1919978);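 note: compounds preincubated with 1 µM D-luciferin or buffer before detection reagent; % of control where 0% means no effect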
- Details: firefly luciferase detection reagent interference, luminescence
Calls of active or inactive are those of the source. Calls come from the whole dose curve; as a rule, active = well fitted curve in the direction sought with a large enough effect; inconclusive = small, poorly fitted or top-dose-only effect, or another doubt; inactive = no such curve, though single readings can be large or run the other way.
# Lookup of reported max response keyed by entry
Observed Property: max response

Molecule	Assay Value
C[C@@]12CC[C@@H]3[C@@](CC[C@H]4[C@@]3(C)CCC[C@@]4(C)C(=O)O)(CC1=O)C2	0.713% (inactive)
CC(C)=CCC(O)/C(C)=C/CO[C@@H]1O[C@H](CO)[C@@H](O)[C@H](O)[C@H]1O (stereo not given in full)	-4.77% (inactive)
CC(C)=CCC[C@](C)(O)[C@H]1CC[C@]2(C)[C@@H]1[C@H](O)CC1[C@@]3(C)CC[C@H](O)C(C)(C)[C@@H]3[C@@H](O[C@@H]3O[C@H](CO)[C@@H](O)[C@H](O)[C@H]3O[C@@H]3O[C@H](CO)[C@@H](O)[C@H](O)[C@H]3O)C[C@]12C (stereo not given in full)	-4.33% (inactive)
CC(C)=CCC[C@](C)(O[C@@H]1O[C@H](CO[C@@H]2O[C@H](CO)[C@@H](O)[C@H](O)[C@H]2O)[C@@H](O)[C@H](O)[C@H]1O)C1CC[C@]2(C)[C@@H]1[C@H](O)CC1[C@@]3(C)CC[C@H](O[C@@H]4O[C@H](CO)[C@@H](O)[C@H](O)[C@H]4O[C@@H]4O[C@H](CO)[C@@H](O)[C@H](O)[C@H]4O)C(C)(C)[C@@H]3CC[C@]12C (stereo not given in full)	-2.77% (inactive)
OC[C@H]1O[C@@H](OC[C@H]2O[C@@H](OC/C=C/c3ccccc3)[C@H](O)[C@@H](O)[C@@H]2O)[C@@H](O)[C@@H]1O	-0.863% (inactive)

----------
# Lookup of reported Z-AUC keyed by entry
- Assay Notes: qHTS drug screen for cell cycle checkpoint inhibitors in PARPi-resistant BRCA-mutant ovarian cancer cell lines. (AID 1963452)
- Details: PEO1/OlaR viability, CellTiter-Glo luminescence, 96 h; stronger effect = lower value

Compound	Z-AUC
COC(=O)N(C)c1c(N)nc(-c2nn(Cc3ccccc3F)c3ncccc23)nc1N	0.294
C=C1C(=O)O[C@H]2[C@H]1CC/C(C)=C/CC[C@@]1(C)O[C@@H]21	1.08
CNCc1ccc(-c2cc(-c3nc(-c4ccc(S(=O)(=O)C(C)C)cc4)cnc3N)on2)cc1	0.146
Cc1[nH]nc(C(F)(F)F)c1Cc1sc2c(c1C(=O)N1C[C@](C)(O)CO1)c(=O)n(C)c(=O)n2C(C)C	0.988
CS(=O)(=O)c1ccc(-c2nnc(/C=C/c3nnc(-c4ccc(C#N)cc4)o3)n2-c2ccccc2Cl)nc1	-0.316
O=C(c1ccc(/C=C/c2n[nH]c3ccccc23)cc1)N1CCNCC1	-0.885
O=C(NCc1cccc(O)c1)Nc1nc(-c2ccncc2)cs1	-0.136
C[C@H]1[C@H](O)O[C@@H]2O[C@@]3(C)CC[C@H]4[C@H](C)CC[C@@H]1[C@@]24OO3	1.05
CCNCc1nc2c(N)nc3ccccc3c2n1CC(C)(C)O	-0.12
O=C(NOCC(O)CO)c1ccc(F)c(F)c1Nc1ccc(I)cc1F (stereo not drawn)	-1.69
C=CC(=O)Nc1cccc(Nc2nc(Nc3ccc(N4CCN(C(C)=O)CC4)cc3OC)ncc2C(F)(F)F)c1	-0.226
Nc1ccc(/C=C/C(=O)NCc2cc3cc(-c4ccc(C(=O)N5CCC(F)(F)CC5)cc4)cc(-c4ccc(F)cc4)c3o2)cn1	-0.388
CCCCNc1ncc2c(-c3ccc(F)cc3)nn(CC3CCC(N)CC3)c2n1 (stereo not drawn)	-1.02
COc1ncc(Nc2ncc([C@H](C)N3CCN(S(C)(=O)=O)CC3)cc2-c2nc(C)nc(N)n2)cc1F	-0.261
Cc1cnc(Nc2ccc(F)cc2Cl)nc1-c1c[nH]c(C(=O)NC(CO)c2cccc(Cl)c2)c1 (stereo not drawn)	-0.685
CC[C@@](C)(Nc1ccnc(-c2c[nH]c3ncccc23)n1)C(=O)NCC(F)(F)F	-1.18
CC[C@]1(O)CC2CN(CCc3c([nH]c4ccccc34)[C@@](C(=O)OC)(c3cc4c(cc3OC)N(C)[C@H]3[C@@](O)(C(=O)OC)[C@H](OC(C)=O)[C@]5(CC)C=CCN6CC[C@]43[C@@H]65)C2)C1 (stereo partly drawn)	-0.152
Cc1cc(O)c(-c2ccc([C@@H](C)CN(C)C)cc2)c2c1[nH]c(=O)c1sccc12	-1.8

----------
- Assay Notes: qHTS drug screen for cell cycle checkpoint inhibitors in PARPi-resistant BRCA-mutant ovarian cancer cell lines. (AID 1963452)
- Details: PEO1/OlaR viability, CellTiter-Glo luminescence, 96 h; stronger effect = lower value
Hi! Could you tag entries with Z-AUC below -0.08 as True, and those at or above as False? Much appreciated.

Compound	Category
NC(=O)[C@H]1CCS[C@@H]2C[C@]3(CCCN3C(=O)Cc3ccc(NC(=O)COc4ccc(Cl)cc4Cl)cc3)C(=O)N12	True
FC(F)(F)c1ccc(Nc2nc(-c3c(C(F)(F)F)nc4ccccn34)cs2)cc1	True
CNC(=O)c1cc(Oc2ccc3nc(N[C@@H]4CCCC[C@H]4O)sc3c2)ccn1	True
c1cn2cc(-c3ccc4cn[nH]c4c3)nc(Nc3ccc(N4CCOCC4)cc3)c2n1	True
CC1=C(CO)C(=O)O[C@@H]([C@@H](C)[C@H]2CC[C@H]3[C@@H]4C[C@H]5O[C@]56[C@@H](O)C=CC(=O)[C@]6(C)[C@H]4CC[C@]23C)C1	True
O=C(C(c1ccccc1)c1ccccc1)N1CCN(CC(O)COc2cccc3ncccc23)CC1 (stereo not drawn)	False
CCO[C@@H]1OC(=O)C[C@@H]1NC(=O)[C@@H]1CCCN1C(=O)[C@@H](NC(=O)c1ccc(N)c(Cl)c1)C(C)(C)C	False
